test system: Fibrinogen (Alexa647-labelled); test: fibrinogen binders on compound microarrays, profiling panel, artefact control for SMM control-protein annotation, biochemical, small-molecule microarray, 635/667 nm fluorescence (AID 1131); conditions: fibrinogen-A647 binding fluorescence, higher = more signal;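 note: z-score merges 667 nm fluorescence with per-spot signal-to-noise over triplicate slides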
measured.attribute: composite z-score
Just the number, please, no unit attached.

// known answers, use as guide
| compound | composite z-score |
| --- | --- |
| COCCOC(=O)N1C(=O)[C@@]2(c3cc(C#CCNC(N)=O)ccc31)[C@H](C(=O)N1CCCCCCC1)[C@H]1C(=O)O[C@H](c3ccccc3)[C@H](c3ccccc3)N1[C@@H]2c1ccccc1OCCO | 0.47 |
| CO[C@H]1COC(=O)[C@H](C)NC(=O)CC=C[C@@H](C)[C@H](NS(=O)(=O)c2ccc(C)cc2)COC(=O)CC=C[C@@H]1C | -1.3 |
| C#CCCCON=C1C[C@@H](O)[C@@H](O)[C@@H]2[C@@H]3C(=O)N(Cc4ccc5c(c4)OCO5)C(=O)[C@@H]3CC[C@H]12 | 0.573 |
| COc1cc2c(cc1OC)CN(C(=O)[C@@H]1[C@H]3C(=O)O[C@H](c4ccccc4)[C@H](c4ccccc4)N3[C@H](c3ccccc3OCCO)[C@@]13C(=O)Nc1ccccc13)CC2 | 0.833 |
| CN1C(=O)C2C=CC(C(O)C3CC=CCC3)N(Nc3ccccc3)C2C1=O (configuration not stated) | 0.678 |
| COc1ccc([Si](C)(C)[C@@H]2[C@@H](CCO)O[C@]3(C(=O)N(Cc4ccc(NC(=O)[C@H](C)O)cc4)c4ccccc43)[C@H]2C)cc1 | 0.94 |

Switching to the query record.
Ask: GET composite z-score | system: Fibrinogen (Alexa647-labelled) | item: CC[C@H]1C2=C3C(CC[C@H]4C(OC)OC[C@](C)([C@@H]34)N(C(=O)OC(C)(C)C)C2)C(CO)C1CO (some centres not stated)
Result: 0.43
